Biological target: T1, Human CD3eg linker (human)
T1 construct: single-chain construct; also called recombinant human CD3
T1 chain: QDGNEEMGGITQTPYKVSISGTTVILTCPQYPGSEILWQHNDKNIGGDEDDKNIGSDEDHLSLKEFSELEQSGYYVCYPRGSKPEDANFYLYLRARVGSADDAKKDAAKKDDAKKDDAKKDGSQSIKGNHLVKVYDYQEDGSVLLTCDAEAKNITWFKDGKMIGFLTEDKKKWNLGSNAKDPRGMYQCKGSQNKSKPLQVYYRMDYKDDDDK
Assay: SPR, vs unmutated H183/L072
QUANTITY_KIND: fold change of affinity (fold)

BINDER	QUANTITY_KIND	UNIT_OF_MEASUREMENT	REPORTED
dBBDu183H V63H/dBBDu072L (antibody, name in Kabat numbering, V domains shown) VH: QVQLVESGGGLVQPGRSLRLSCAASGFTFSNAWMHWVRQAPGKGLEWVAQIKDKGNAYAAYYAPSHKGRFTISRDDSKNSIYLQMNSLKTEDTAVYYCHYVHYASASTVLPAFGVDAWGQGTTVTVSS VL: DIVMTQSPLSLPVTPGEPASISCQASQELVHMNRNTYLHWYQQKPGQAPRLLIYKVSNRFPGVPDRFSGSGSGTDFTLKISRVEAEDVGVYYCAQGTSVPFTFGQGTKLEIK	fold change of affinity	fold	1
dBBDu183H P100eG/dBBDu072L (antibody, name in Kabat numbering, V domains shown) VH: QVQLVESGGGLVQPGRSLRLSCAASGFTFSNAWMHWVRQAPGKGLEWVAQIKDKGNAYAAYYAPSVKGRFTISRDDSKNSIYLQMNSLKTEDTAVYYCHYVHYASASTVLGAFGVDAWGQGTTVTVSS VL: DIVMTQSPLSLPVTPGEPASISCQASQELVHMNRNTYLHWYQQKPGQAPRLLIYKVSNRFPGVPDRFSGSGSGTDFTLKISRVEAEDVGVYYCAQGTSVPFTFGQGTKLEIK	fold change of affinity	fold	1.6
dBBDu183H Y97F/dBBDu072L (antibody, name in Kabat numbering, V domains shown) VH: QVQLVESGGGLVQPGRSLRLSCAASGFTFSNAWMHWVRQAPGKGLEWVAQIKDKGNAYAAYYAPSVKGRFTISRDDSKNSIYLQMNSLKTEDTAVYYCHYVHFASASTVLPAFGVDAWGQGTTVTVSS VL: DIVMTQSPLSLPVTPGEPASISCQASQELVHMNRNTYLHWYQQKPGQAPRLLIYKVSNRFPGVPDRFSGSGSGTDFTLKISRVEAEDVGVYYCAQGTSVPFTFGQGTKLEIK	fold change of affinity	fold	0
